Measured values drawn from the supplement of paper PMC9112550 for this set.

Test system: Escherichia coli TOP10
assay.text: shrunken log2 fold change of peptide-encoding DNA abundance (4.5 h post-induction vs induction); higher = less antimicrobial activity (less host growth inhibition)
test.context: time post-induction: 4.5 h; library: site-saturation at positions 5, 18, 19, 20
measurement.name: shrunken log2 fold change
Write the number on its own, no unit after it.

Data request: Test system Escherichia coli TOP10; read-out shrunken log2 fold change; what value for RRIRFRPPRLPRPRPRPMTVPRP ?
Data returned: -0.463

Data request: Test system Escherichia coli TOP10; read-out shrunken log2 fold change; what value for RRIRVRPPRLPRPRPRPYRYPRP ?
Data returned: -0.228

Data request: Test system Escherichia coli TOP10; read-out shrunken log2 fold change; what value for RRIRARPPRLPRPRPRPRNAPRP ?
Data returned: 0.485

Data request: Test system Escherichia coli TOP10; read-out shrunken log2 fold change; what value for RRIRTRPPRLPRPRPRPDPEPRP ?
Data returned: 0.155

Data request: Test system Escherichia coli TOP10; read-out shrunken log2 fold change; what value for RRIRSRPPRLPRPRPRPGCLPRP ?
Data returned: 0.0602

Data request: Test system Escherichia coli TOP10; read-out shrunken log2 fold change; what value for RRIRYRPPRLPRPRPRPHDNPRP ?
Data returned: -1.04

Data request: Test system Escherichia coli TOP10; read-out shrunken log2 fold change; what value for RRIRDRPPRLPRPRPRPFMAPRP ?
Data returned: 0.035

Data request: Test system Escherichia coli TOP10; read-out shrunken log2 fold change; what value for RRIRLRPPRLPRPRPRPMQHPRP ?
Data returned: 0.256

Data request: Test system Escherichia coli TOP10; read-out shrunken log2 fold change; what value for RRIRTRPPRLPRPRPRPQCVPRP ?
Data returned: -0.12

Data request: Test system Escherichia coli TOP10; read-out shrunken log2 fold change; what value for RRIRVRPPRLPRPRPRPRIFPRP ?
Data returned: 0.137

Data request: Test system Escherichia coli TOP10; read-out shrunken log2 fold change; what value for RRIRGRPPRLPRPRPRPHGTPRP ?
Data returned: 0.331

Data request: Test system Escherichia coli TOP10; read-out shrunken log2 fold change; what value for RRIRVRPPRLPRPRPRPQWNPRP ?
Data returned: -0.386

Data request: Test system Escherichia coli TOP10; read-out shrunken log2 fold change; what value for RRIRDRPPRLPRPRPRPITTPRP ?
Data returned: 0.0735

Data request: Test system Escherichia coli TOP10; read-out shrunken log2 fold change; what value for RRIRDRPPRLPRPRPRPWMYPRP ?
Data returned: -0.267

Data request: Test system Escherichia coli TOP10; read-out shrunken log2 fold change; what value for RRIRTRPPRLPRPRPRPALEPRP ?
Data returned: 0.122

----------
System: Escherichia coli TOP10;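 note: peptides expressed intracellularly from a pBAD plasmid library in pooled LB shake-flask culture, induced with 0.3% L-arabinose, DNA abundance read by NGS, three biological replicates, DESeq2 with apeglm shrinkage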
assay.text: shrunken log2 fold change of peptide-encoding DNA abundance (4.5 h post-induction vs induction); higher = less antimicrobial activity (less host growth inhibition)
test.context: time post-induction: 4.5 h; library: site-saturation at positions 5, 18, 19, 20
measurement.name: shrunken log2 fold change
Write the number on its own, no unit after it.

Data request: # get_value(readout='shrunken log2 fold change', item= RRIRLRPPRLPRPRPRPQKCPRP )
Data returned: -0.222

Data request: # get_value(readout='shrunken log2 fold change', item= RRIRGRPPRLPRPRPRPVAVPRP )
Data returned: 0.912

Data request: # get_value(readout='shrunken log2 fold change', item= RRIRMRPPRLPRPRPRPEHAPRP )
Data returned: 2.54

Data request: # get_value(readout='shrunken log2 fold change', item= RRIRRRPPRLPRPRPRPIQYPRP )
Data returned: -0.00028

Data request: # get_value(readout='shrunken log2 fold change', item= RRIRNRPPRLPRPRPRPNLVPRP )
Data returned: -0.0403

Data request: # get_value(readout='shrunken log2 fold change', item= RRIRTRPPRLPRPRPRPVCRPRP )
Data returned: 0.0309

Data request: # get_value(readout='shrunken log2 fold change', item= RRIRNRPPRLPRPRPRPGYYPRP )
Data returned: -0.851

Data request: # get_value(readout='shrunken log2 fold change', item= RRIRMRPPRLPRPRPRPLECPRP )
Data returned: -0.0215
